Listed next: entries and their corresponding inhibition.
Molecular target: DNA topoisomerase 1 (Homo sapiens) (UniProt P11387)
Sequence (P11387 whole entry): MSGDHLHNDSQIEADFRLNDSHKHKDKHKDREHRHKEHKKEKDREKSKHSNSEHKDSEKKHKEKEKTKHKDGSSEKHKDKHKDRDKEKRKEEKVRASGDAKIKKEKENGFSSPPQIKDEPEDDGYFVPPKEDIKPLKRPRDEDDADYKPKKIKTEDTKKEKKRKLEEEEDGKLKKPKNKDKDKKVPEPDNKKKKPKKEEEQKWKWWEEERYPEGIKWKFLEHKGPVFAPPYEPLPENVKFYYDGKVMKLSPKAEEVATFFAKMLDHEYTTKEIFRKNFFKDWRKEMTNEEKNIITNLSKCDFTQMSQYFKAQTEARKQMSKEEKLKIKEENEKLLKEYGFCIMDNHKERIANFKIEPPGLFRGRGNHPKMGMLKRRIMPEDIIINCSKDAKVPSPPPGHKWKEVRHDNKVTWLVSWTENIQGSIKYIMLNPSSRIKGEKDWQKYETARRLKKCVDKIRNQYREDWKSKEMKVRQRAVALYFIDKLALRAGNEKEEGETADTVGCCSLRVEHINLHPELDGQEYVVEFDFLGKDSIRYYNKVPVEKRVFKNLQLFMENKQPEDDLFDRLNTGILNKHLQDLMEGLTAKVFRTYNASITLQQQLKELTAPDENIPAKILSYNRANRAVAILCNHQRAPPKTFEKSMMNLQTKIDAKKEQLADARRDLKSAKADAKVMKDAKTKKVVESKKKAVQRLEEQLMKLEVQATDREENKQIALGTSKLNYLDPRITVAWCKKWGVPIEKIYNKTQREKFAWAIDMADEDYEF
Assay: Inhibition of recombinant human topoisomerase 1 assessed as relaxation of supercoiled plasmid DNA pBR322 at 20 uM incubated for 30 mins by agarose gel electrophoresis
Numeric only. Scale: %

Field: example entries. Status: answers known.
CHEMICAL_STRUCTURE: Cc1ccc2c(=O)[nH]c(-c3ccccc3F)nc2c1
inhibition, %: 0
--
CHEMICAL_STRUCTURE: Cc1ccc2c(=O)[nH]c(-c3ccccc3C)nc2c1
inhibition, %: 39.2
--
CHEMICAL_STRUCTURE: CCN(CC)c1ccc2nc(-c3ccccc3N(C)C)[nH]c(=O)c2c1
inhibition, %: 0

**Query** Give the reported value of inhibition for this record: `COc1cccc(-c2nc3cc(C)ccc3c(=O)[nH]2)c1`
**Result** 80
